# assayed_system: CK2A1 (CK2α/β) (Homo sapiens, UniProt P68400)
# Sequence (P68400 whole entry, species assumed): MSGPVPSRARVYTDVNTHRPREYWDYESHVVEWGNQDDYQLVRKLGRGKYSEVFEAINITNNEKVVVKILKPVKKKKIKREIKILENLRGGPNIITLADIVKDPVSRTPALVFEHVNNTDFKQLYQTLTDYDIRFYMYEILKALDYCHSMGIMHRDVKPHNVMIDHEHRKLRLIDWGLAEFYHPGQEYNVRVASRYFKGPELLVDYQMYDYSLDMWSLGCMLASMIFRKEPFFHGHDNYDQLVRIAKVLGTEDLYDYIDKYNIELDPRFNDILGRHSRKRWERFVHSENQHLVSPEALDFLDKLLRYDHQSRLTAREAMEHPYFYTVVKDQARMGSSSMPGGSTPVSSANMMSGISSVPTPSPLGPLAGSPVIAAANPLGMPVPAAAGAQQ
# Sequence (P67870 whole entry partner, species assumed): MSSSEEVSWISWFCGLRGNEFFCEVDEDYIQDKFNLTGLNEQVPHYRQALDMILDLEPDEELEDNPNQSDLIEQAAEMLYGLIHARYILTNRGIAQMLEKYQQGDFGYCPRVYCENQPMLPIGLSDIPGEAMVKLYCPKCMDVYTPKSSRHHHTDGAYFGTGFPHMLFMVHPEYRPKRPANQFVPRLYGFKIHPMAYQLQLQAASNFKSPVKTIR
# experiment_summary: CK2 kinase assay, CK2A1 (CK2α/β)
# Assay type: biochemical
# cond: Table A; read-out: CK2A1 (CK2α/β) (IC50)
// NB: equality with 2 nM counts as no (0); only IC50 strictly below is yes (1)

Below, 4 molecules whose answers are already recorded.
CCNc1nc(Nc2cc(C#N)cc(N3CC[C@@H]4[C@@H](C3)OC(=O)N4[C@H]3CCOC3)c2Cl)nn2c(C#N)cnc12 (single isomer, unassigned) [Example 843] :: no (0)
CNC(=O)CN1CCN(c2cc(C#N)cc(Nc3nc(NC4CC4)c4ncc(C#N)n4n3)c2Cl)CC1 :: yes (1)
N#Cc1cc(Nc2nc(NC3CC3)c3ncc(C#N)n3n2)c(Cl)c(N2CCN(NCC(N)=O)CC2)c1 :: yes (1)
CN1CCC2(CCN(c3cc(C#N)cc(Nc4nc(NC5CC5)c5ncc(C#N)n5n4)c3Cl)CC2)C1=O (racemic) :: yes (1)

Quick check: IC50 of CCNc1nc(Nc2cc(C#N)cc(C3CCN(C)CC3)c2Cl)nn2c(C#N)cnc12 under 2 nM? yes (1)

Field: below-cutoff. Rule: recorded IC50 strictly less than 2 nM. Subject: N#Cc1cc(Nc2nc(NC3CC3)c3ncc(C#N)n3n2)c(Cl)c(N2CCN(C3CCNC3=O)CC2)c1 (stereo not shown) no (0)

Item N#Cc1cc(Nc2nc(NC3CC3)c3ncc(C#N)n3n2)c(Cl)c([C@H]2CCC[C@@H](N3CC(F)C3)C2)c1 (single isomer, unassigned) [Example 729] : IC50 beneath 2 nM, strictly? yes (1)
